Reference for the values: patent US20170298051A1

System: AdipoR1
Experiment: Measurement of AMPK phosphorylation ability (Assay 2), C2C12 cells with unrelated or AdipoR1 siRNA
Type: cell-based, Mouse
Conditions: unrelated siRNA
Recorded pAMPK/AMPK (ratio) siRNA, unrelated siRNA, one value per entry.
Report only the number, with the unit ratio understood.

QUERY: Please tell me: pAMPK/AMPK (ratio) siRNA, unrelated siRNA of "COc1ccc(CN2CC[C@@]2(C)C(=O)NC2CCN(Cc3ccccc3)CC2)c2ccccc12" , system AdipoR1?
RESULT: 4.53

* * *

Target: AdipoR1 (Homo sapiens)
Sequence (Q96A54 whole entry): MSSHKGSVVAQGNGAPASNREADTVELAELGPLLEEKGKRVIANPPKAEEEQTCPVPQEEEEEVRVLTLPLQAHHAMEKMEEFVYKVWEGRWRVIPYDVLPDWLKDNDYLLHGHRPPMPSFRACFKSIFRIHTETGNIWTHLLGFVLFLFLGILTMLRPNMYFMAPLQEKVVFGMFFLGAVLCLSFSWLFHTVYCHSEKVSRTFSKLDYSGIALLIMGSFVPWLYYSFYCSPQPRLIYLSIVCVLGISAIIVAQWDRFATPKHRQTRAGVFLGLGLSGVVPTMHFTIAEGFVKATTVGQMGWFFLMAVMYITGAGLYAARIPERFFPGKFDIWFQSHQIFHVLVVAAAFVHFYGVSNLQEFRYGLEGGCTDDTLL
Assay: Measurement of AMPK phosphorylation ability (Assay 1), HEK 293T cells, Western blotting
Type: cell-based
Parameters: HEK 293T cells (ATCC; CRL-3216, medium; host or cells: HEK 293T
Conditions: 50 μM, 10 minutes
Attribute Measured: pAMPK/AMPK (%)
Number only, in %; omit the unit.

QUERY: What value of pAMPK/AMPK (%) has been reported for the following molecule? "COc1cccc(C(=O)N2CCN(CCC(=O)NC3CC3)CC2)c1"
RESULT: 46.92

QUERY: Suppose we examine the molecule "NC(=O)c1ccc(OCC(=O)NC2CCN(Cc3ccc(Cl)c(Cl)c3)CC2)cc1" ; what pAMPK/AMPK (%) value has been reported?
RESULT: 95.02

QUERY: May I ask what pAMPK/AMPK (%) has been recorded for CC(c1ccccc1)N1CCC(NC(=O)COc2ccc(Oc3ccccn3)cc2)CC1 (stereo not drawn) ?
RESULT: 80.39

QUERY: Fill in the blank: the reported pAMPK/AMPK (%) of "CCOc1ccc(OCC(=O)NC2CCN(Cc3ccc(Cl)c(Cl)c3)CC2)cc1" is ____.
RESULT: 87.54

QUERY: GET /values?readout=pAMPK/AMPK (%)&item= "O=C(COc1ccc(I)cc1)NC1CCN(Cc2ccccc2)CC1"
RESULT: 72.56

* * *

Assay: Measurement of plasma concentrations of AdipoRon
Type: in vivo, C57BL/6 mice
Conditions: C57BL/6, mouse, C57B6 WT mice, oral 50 mg/kg, read-out: maximal concentration (Cmax) in plasma
Attribute Measured: Cmax (µM)
Give the value in µM but do not write µM after it.

QUERY: Reported Cmax, compound "O=C(COc1ccc(C(=O)c2ccccc2)cc1)NC1CCN(Cc2ccccc2)CC1" : ____
RESULT: 11.8

* * *

System: AdipoR1
Assay: Measurement of AMPK phosphorylation ability (Assay 2), C2C12 cells with unrelated or AdipoR1 siRNA
Format: cell-based, Mouse
Conditions: unrelated siRNA
pAMPK/AMPK (ratio) siRNA, unrelated siRNA overview
Answer in ratio, number only, no unit symbol.

QUERY: Given CC#CCN(Cc1ccco1)C(=O)c1ccc(OC2CCN(Cc3ccccn3)CC2)cc1 [No. 272350] , state its recorded pAMPK/AMPK (ratio) siRNA, unrelated siRNA.
RESULT: 2.03

QUERY: Report pAMPK/AMPK (ratio) siRNA, unrelated siRNA for Cc1cccc(CN2CCC(Oc3ccc(C(=O)NC4CCCC4)cc3Cl)CC2)n1 [No. 492284] please.
RESULT: 2.05

QUERY: GET /values?readout=pAMPK/AMPK (ratio) siRNA, unrelated siRNA&item= COc1ccccc1N1CCN(CCC(=O)Nc2ccccc2Cl)CC1 [No. 189640]
RESULT: 1.85
